# target-system: T1, PUF4 RNA-binding domain (Saccharomyces cerevisiae, UniProt P25339 537-888)
# T1 sequence: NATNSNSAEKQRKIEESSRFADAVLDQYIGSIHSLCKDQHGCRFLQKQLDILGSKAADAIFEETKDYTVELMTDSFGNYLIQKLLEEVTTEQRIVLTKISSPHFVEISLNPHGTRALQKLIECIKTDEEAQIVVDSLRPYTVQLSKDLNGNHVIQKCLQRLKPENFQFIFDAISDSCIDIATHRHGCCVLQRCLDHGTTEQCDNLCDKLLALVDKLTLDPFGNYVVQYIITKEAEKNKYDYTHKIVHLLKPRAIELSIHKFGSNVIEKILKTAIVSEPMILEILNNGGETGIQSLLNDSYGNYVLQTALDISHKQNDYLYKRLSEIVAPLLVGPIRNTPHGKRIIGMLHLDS
# measurement-protocol: Mg; RNA-MaP; 20 mM Na-HEPES pH 7.4, 30 mM KOAc, 0.75 mM MgCl2, 0.1% Tween-20, 5% glycerol, 0.1 mg/mL BSA, 2 mM DTT; 25 C; 0.0125-409.6 nM protein
# settings: tags: N-His6-TEV cleaved; C-SNAP kept, Cy3B-labelled; label: tethered on chip by stalled RNA polymerase
Decide using Kd alone. Strictly below 100 nM: Criterion met. Equal to or above 100 nM: Criterion not met.

Does this binder meet the criterion Kd < 100 nM? UCUCUUUGUACUUCUUCUCUU (ssRNA) [Ic_S1_P4E.1_K4.1_C4.1_H4.1_A4.1_[T5C]_[A6T]_F4.1_[T8C]_[A9T]_T4.1]
Criterion met

Does this binder meet the criterion Kd < 100 nM? Ia_S4_P3E.1_K3.1_C3.1_H3.1_[A4T]_A3.1_F3.1_T3.1 (ssRNA) RNA: UUUGACAACUGAUCGUUCUUUCUUGUUUAUAUUCUUUCUCGAUCAGUUGUCUUU
Criterion met

Does this binder meet the criterion Kd < 100 nM? Ic_S4_P4E.1_K4.1_C4.1_H4.1_A4.1_[T5C]_[A6C]_[T7A]_F4.1_[T8C]_T4.1 (ssRNA) RNA: UUUGACAACUGAUCGUUCUUUCUUGUACCACAUUCUUUCUCGAUCAGUUGUCUUU
Criterion not met

Does this binder meet the criterion Kd < 100 nM? Ic_S2_P4E.1_K4.1_C4.1_H4.1_A4.1_[A6T]_[T7G]_F4.1_[A9C]_T4.1 (ssRNA) RNA: UUUGAUUAAUAUGAUAUCGUUCUUUCUUGUAUUGUCUUCUUUCUCGAUAUCAUAUUAAUCUUU
Criterion not met

Does this binder meet the criterion Kd < 100 nM? Id_ii_S2_P3E.3_K3.2_C3.2_[T-1C]_H3.2_A3.1_F3.1_T3.2_[T9A]_[A10C] (ssRNA) RNA: UUUGAUUAAUAUGAUAUCGUUCUUUCUCCUAUAUAUAACUUCUUUCUCGAUAUCAUAUUAAUCUUU
Criterion not met

Does this binder meet the criterion Kd < 100 nM? Ie_S4_P5E.1_K5.1_C5.1_H5.1_A5.1_[+7CCT]_F5.1_T5.1 (ssRNA) RNA: UUUGACAACUGAUCGUUCUUUCUUGUAUUACCUUUAUUCUUUCUCGAUCAGUUGUCUUU
Criterion met
